Tested on: CCRIS mutagenicity, Ames/micronucleus/aberration tests
Test: CCRIS mutagenicity studies
Conditions: Test System: AMES SALMONELLA TYPHIMURIUM; Strain/Indicator: TA100; Metabolic Activation: NONE; Method: STANDARD PLATE
Activity calls are given as the source filed them. The rule behind the calls is not given here.

COMPOUND	mutagenic call
COc1cccc2c1C(=O)c1c(O)c3c(c(O)c1C2=O)C[C@@](O)(C(=O)CO)C[C@@H]3O[C@H]1C[C@H](N)[C@H](OC)[C@H](C)O1	active; positive
CCN[C@H](C)C[C@@H](C)NCC.[Cl-].[Cl-].[Pt+2]	inactive; negative
CC(=O)N(O)c1ccc(Oc2ccc(Cl)cc2)cc1	inactive; negative
CC(C)CCC[C@@H](C)[C@H]1CC[C@H]2[C@@H]3C[C@@H](O)[C@@]4(O)C[C@@H](O)CC[C@]4(C)[C@H]3CC[C@]12C	active; positive
CNC(=O)Nc1ccccc1	inactive; negative
O=Nc1c(-c2ccc(Cl)cc2)nc2sccn12	inactive; negative
C[C@]12CC[C@H](OC(=O)/C=C/c3cccc(N(CCCl)CCCl)c3)CC1=CC[C@@H]1[C@@H]2CC[C@]2(C)NC(=O)CC[C@@H]12	inactive; negative
O=C([O-])/C=C/C(=O)[O-].[Fe+2]	inactive; negative
Nc1ncnc2c1ncn2[C@@H]1O[C@H](CO)[C@@H](O)[C@H]1O	inactive; negative
CNC(=O)N(C)c1nc2ccccc2s1	inactive; negative
CCCCC(CC)COC(=O)COc1ccc(Cl)cc1Cl (stereo unspecified)	inactive; negative
C=CCc1ccccc1N.[Cl-].[Cl-].[Pd+2]	active; positive
O=[N+]([O-])c1ccc(Oc2ccc(Cl)cc2Cl)cc1	active; positive
O=C(Nc1ccc(Br)cc1)c1csc([N+](=O)[O-])c1	active; positive
c1cnccn1	inactive; negative
O=C(O)c1cc2c(c3c1c([N+](=O)[O-])cc1c(O)cccc13)OCO2	active; positive
NC(=O)CCC(=O)Nc1cc(Cl)c(Cl)c(Cl)c1	inactive; negative
O=C1c2ccccc2-c2ccc3ccccc3c21	inactive; negative
CC12CCC(CC1)C(C)(C)O2	inactive; negative
O=c1[nH]c2ccccc2o1	inactive; negative
Cc1cc(Cl)ccc1OCCCC(=O)O	inactive; negative
Cc1c(/C=N/OCc2cccc([N+](=O)[O-])c2)c2cc([N+](=O)[O-])ccc2n1Cc1ccccc1	active; positive
O=NN(CCO)CCO	active; positive
C=CCc1ccc(O)c(OC)c1	inactive; negative
O=C1OC2(c3ccccc31)c1cc(I)c(O)c(I)c1Oc1c2cc(I)c(O)c1I	inactive; negative
CCN1CCN(C(=O)N[C@@H](C(=O)N[C@@H]2C(=O)N3[C@@H]2SC(C)(C)[C@@H]3C(=O)O)c2ccccc2)C(=O)C1=O	inactive; negative
O=C(O)Nc1ccccc1	inactive; negative
CC(C)(C)N(CCO)CCO	inactive; negative
CCCCOC(=O)c1ccccc1C(=O)OCCCC	active; positive
CC(C)NCC(O)COc1cccc2c1OCC(O)C2 (stereo unspecified)	inactive; negative
CC(C)N(N)C(C)C	inactive; negative
Cc1c(N)cc([N+](=O)[O-])c(N)c1C	inactive; negative
C1CN1c1nc(N2CC2)nc(N2CC2)n1	active; positive
Clc1ccccn1	inactive; negative
N#C/C(=C/C=C/c1ccccc1)c1ccc(F)cc1	inactive; negative
Nc1ccc(/C=C/C(=O)O)cc1	inactive; negative
C/C=C/c1ccc(O)c(OC)c1	inactive; negative
O=C(O)C1=NN(c2ccc(S(=O)(=O)O)cc2)C(=O)C1N=Nc1ccc(S(=O)(=O)O)cc1 (stereo unspecified)	inactive; negative
CCc1cccc(CC)c1N(COC)C(=O)CCl	inactive; negative
CC1=CC(C)(C)Nc2ccccc21	inactive; negative
O=C(CBr)c1oc([N+](=O)[O-])c(Cl)c1Cl	active; positive
Nc1ccc2cc3ccc(N)cc3nc2c1	inactive; negative
C=CC(=O)OCC(CC)(COC(=O)C=C)COC(=O)C=C	inactive; negative
C[Si](Cl)(Cl)Cl	inactive; negative
CC1(C)CCC[C@]2(C)C(C=O)C(C=O)=CC[C@@H]12 (stereo partly specified)	inactive; negative
c1ccc2sncc2c1	inactive; negative
CC(=O)Nc1cc2c(cc1[N+](=O)[O-])[nH]c1ccccc12	inactive; negative
C=Cc1ccc(O)c(C=C)c1	inactive; negative
O=CNc1ccc(Oc2c(Cl)cc(Cl)cc2Cl)cc1	inactive; negative
c1cnc2c(c1)CCC1OC21 (stereo unspecified)	inactive; negative
N#Cc1cc([N+](=O)[O-])ccc1N=Nc1ccc(N(CCO)CCO)cc1	active; positive

---

Tested on: CCRIS mutagenicity, Ames/micronucleus/aberration tests
Test: CCRIS mutagenicity studies
Settings: Test System: AMES SALMONELLA TYPHIMURIUM; Strain/Indicator: TA98; Metabolic Activation: RAT, LIVER, S-9, AROCLOR 1254 (30%); Method: PREINCUBATION
Calls of active or inactive are those of the source. The rule behind the calls is not given here.
Outcomes: active, inactive

COMPOUND	ASSIGNED_LABEL
O=c1n(CC2CO2)c(=O)n(CC2CO2)c(=O)n1CC1CO1 (configuration not stated)	active
ClC(Cl)c1ccccc1	active
O=Cc1c(Cl)cccc1Cl	inactive
CC(=O)CC(=O)Nc1ccccc1	inactive
Cc1cccc(Br)c1	inactive
Cc1ccc2cccnc2c1	inactive
O=C(NO)c1ccccc1	active
CCOc1ccc(N)cc1	inactive
C=CCOC(=O)C=C	inactive
NO	inactive
ClC(Cl)(Cl)Cl	inactive
CCCCCCCCCCCCC/C([O-])=N/[N+](C)(C)CC(C)O (configuration not stated)	inactive
CCCC(=O)Cl	inactive
OCC(O)CI (configuration not stated)	inactive
C#C[C@]1(O)CC[C@H]2[C@@H]3CCc4cc(O)ccc4[C@H]3CC[C@@]21C	inactive
CC(O)C#N (configuration not stated)	inactive
c1cc2c3c(cccc3c1)CC2	inactive

---

Test system: CCRIS mutagenicity, Ames/micronucleus/aberration tests
Test: CCRIS mutagenicity studies
Details: Test System: AMES SALMONELLA TYPHIMURIUM; Strain/Indicator: TA97; Metabolic Activation: HAMSTER, LIVER, S-9, AROCLOR 1254 (30%); Method: PREINCUBATION
Calls of active or inactive are those of the source. No rule for the calls is given here.
Outcomes: active, inactive

COMPOUND	TARGET_OR_TEST_SYSTEM	ASSIGNED_LABEL
O=Cc1c(Cl)cccc1Cl	CCRIS mutagenicity, Ames/micronucleus/aberration tests	inactive
ClC(Cl)(Cl)Cl	CCRIS mutagenicity, Ames/micronucleus/aberration tests	inactive
Nc1cc([N+](=O)[O-])cc(S(=O)(=O)O)c1O	CCRIS mutagenicity, Ames/micronucleus/aberration tests	inactive
Cl[C@@H]1C2(Cl)C3C4[C@@H]5O[C@@H]5[C@H]5C3[C@@](Cl)(C2(Cl)Cl)[C@]1(Cl)[C@@H]45 (some centres not stated)	CCRIS mutagenicity, Ames/micronucleus/aberration tests	active
S=C=Nc1cccc2ccccc12	CCRIS mutagenicity, Ames/micronucleus/aberration tests	active
CCO	CCRIS mutagenicity, Ames/micronucleus/aberration tests	inactive
c1cc2c3c(cccc3c1)CC2	CCRIS mutagenicity, Ames/micronucleus/aberration tests	inactive

---

Test system: CCRIS mutagenicity, Ames/micronucleus/aberration tests
Test: CCRIS mutagenicity studies
Conditions: Test System: AMES SALMONELLA TYPHIMURIUM; Strain/Indicator: TA100; Metabolic Activation: S-9; Method: STANDARD PLATE
Active and inactive are the calls of the source. The rule behind the calls is not given here.
PARAMETER: mutagenic call

COMPOUND	TARGET_OR_TEST_SYSTEM	ENDPOINT_VALUE
C[C@H]1CC[C@@H]2[C@@H](C)[C@H]3[C@H](C[C@H]4[C@@H]5CC=C6C[C@@H](O[C@@H]7O[C@H](CO)[C@@H](O[C@@H]8O[C@@H](C)[C@H](O)[C@@H](O)[C@H]8O)[C@H](O)[C@H]7O[C@@H]7O[C@@H](C)[C@H](O)[C@@H](O)[C@H]7O)CC[C@]6(C)[C@H]5CC[C@]34C)N2C1	CCRIS mutagenicity, Ames/micronucleus/aberration tests	inactive; negative
Cc1cc(C(C)(C)C)c(O)c(C(C)(C)C)c1	CCRIS mutagenicity, Ames/micronucleus/aberration tests	inactive; negative
CC1=C(C(=O)Nc2ccccc2)SCCO1	CCRIS mutagenicity, Ames/micronucleus/aberration tests	inactive; negative
CCCN(C(=O)CCCl)c1snc2ccccc12	CCRIS mutagenicity, Ames/micronucleus/aberration tests	inactive; negative
c1ccc2sncc2c1	CCRIS mutagenicity, Ames/micronucleus/aberration tests	inactive; negative
Cc1ccc2nsc(N)c2c1	CCRIS mutagenicity, Ames/micronucleus/aberration tests	active; positive
C[n+]1ccn(CCC[n+]2ccc(C(N)=O)cc2)c1/C=N/O	CCRIS mutagenicity, Ames/micronucleus/aberration tests	inactive; negative
O=C(N=c1sn(C(=O)c2ccc([N+](=O)[O-])cc2)c2ccccc12)c1ccc([N+](=O)[O-])cc1	CCRIS mutagenicity, Ames/micronucleus/aberration tests	active; positive
CN(C)CCn1cc[n+](C)c1/C=N/O	CCRIS mutagenicity, Ames/micronucleus/aberration tests	inactive; negative
CC[C@]1(O)C[C@@H]2CN(CCc3c([nH]c4ccccc34)[C@@](C(=O)OC)(c3cc4c(cc3OC)N(C)[C@H]3[C@@](O)(C(=O)OC)[C@H](OC(C)=O)[C@]5(CC)C=CCN6CC[C@]43[C@@H]65)C2)C1	CCRIS mutagenicity, Ames/micronucleus/aberration tests	inactive; negative
CCCNc1snc2ccccc12	CCRIS mutagenicity, Ames/micronucleus/aberration tests	inactive; negative
O=[N+]([O-])c1ccc(Oc2c(Cl)cc(Cl)cc2Cl)cc1	CCRIS mutagenicity, Ames/micronucleus/aberration tests	inactive; negative
Nc1ccc(/C=C/c2ccc(N)cc2)cc1	CCRIS mutagenicity, Ames/micronucleus/aberration tests	inactive; negative
C=Cc1ccc(O)c(C=C)c1	CCRIS mutagenicity, Ames/micronucleus/aberration tests	inactive; negative
O=[N+]([O-])c1ccc(/C=C/c2cccc([N+](=O)[O-])c2)cc1	CCRIS mutagenicity, Ames/micronucleus/aberration tests	active; positive
CS(=O)(=O)OCCCNCCCOS(C)(=O)=O	CCRIS mutagenicity, Ames/micronucleus/aberration tests	inactive; negative
CCc1cccc(CC)c1N(COC)C(=O)CCl	CCRIS mutagenicity, Ames/micronucleus/aberration tests	inactive; negative
CC(C)NCC(O)COc1cccc2c1OCC(O)C2 (centres undefined)	CCRIS mutagenicity, Ames/micronucleus/aberration tests	inactive; negative
O=[N+]([O-])c1ccc(Oc2ccc(Cl)cc2Cl)cc1	CCRIS mutagenicity, Ames/micronucleus/aberration tests	inactive; negative

src = PubChem BioAssay AID1259407
